System: SR leukemia
Test: NCI-60 one-dose screen, 48 h (100 = growth as untreated, 0 = no growth, -100 = all killed)
Details: 10 µM
Compounds without any hit were thinned out: in the full panel of roughly 83,000, 20% have a hit.
Outcome label depends on growth relative to 20%: at/above gives 1, below gives 0.

Worked examples, 4 compounds total:
CC(C)(Cl)CCC1=C(Cl)C(=O)c2ccccc2C1=O : 0
COc1cc(/C(=C2/O[C@@H]([C@H]3COC(C)(C)O3)[C@H]3OC(C)(C)O[C@@H]23)c2ccc3ccccc3c2)cc(OC)c1OC : 1
COc1ccc(-c2nc3ccccn3c2-c2nnc(-c3cc(OC)c(OC)c(OC)c3)o2)cc1 : 1
CCc1ccc2c(c1)N(CCO)C1=C(C(=O)OC1)C2c1cc(OC)c(OC)c(OC)c1 (stereo not drawn) : 0

Has `Cc1nc2c(c(=O)[nH]1)OCN(Cc1ccccc1)C2` a recorded growth greater than or equal to 20%? 1

Has `CC(=O)c1cc(Br)ccc1O` a recorded growth greater than or equal to 20%? 1

Has COc1cc(NC(=O)c2sc3nc4c(cc3c2N)C(O)CCC4)cc(OC)c1 (stereo not drawn) a recorded growth greater than or equal to 20%? 0

Has `Fc1cc(C(F)(F)F)ccc1-c1cncnc1NC1CCCCCC1` a recorded growth greater than or equal to 20%? 1
